src = patent EP1147080B1

molecular target: TNF-α converting enzyme (TACE) (Homo sapiens); assay: Test procedure for measuring TACE inhibition (fluorescent peptidyl substrate); type: biochemical; conditions: Table 1
Sequence (P78536 215-824): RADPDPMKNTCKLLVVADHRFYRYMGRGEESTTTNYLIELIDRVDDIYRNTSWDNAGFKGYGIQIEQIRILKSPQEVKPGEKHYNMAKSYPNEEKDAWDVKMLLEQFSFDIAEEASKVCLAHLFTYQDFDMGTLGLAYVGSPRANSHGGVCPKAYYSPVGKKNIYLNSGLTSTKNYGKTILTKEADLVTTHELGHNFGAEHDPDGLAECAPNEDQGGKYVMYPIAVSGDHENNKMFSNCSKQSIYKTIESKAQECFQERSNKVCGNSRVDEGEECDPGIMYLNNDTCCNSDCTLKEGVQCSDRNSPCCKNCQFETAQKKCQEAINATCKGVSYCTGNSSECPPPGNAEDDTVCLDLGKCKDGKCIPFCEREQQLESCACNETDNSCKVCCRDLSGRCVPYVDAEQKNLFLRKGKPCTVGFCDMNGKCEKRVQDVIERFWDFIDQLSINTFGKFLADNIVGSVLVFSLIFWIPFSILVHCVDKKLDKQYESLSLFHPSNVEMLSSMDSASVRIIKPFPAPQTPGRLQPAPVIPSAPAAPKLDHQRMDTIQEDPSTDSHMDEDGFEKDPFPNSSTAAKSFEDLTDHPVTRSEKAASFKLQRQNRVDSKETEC
readout_kind: IC50 (µM)

>>> observed_measurement("CC#CCOc1ccc(S(=O)(=O)C(CCCCNC(=O)c2ccc3ccccc3n2)C(=O)NO)cc1 (centres unmarked)")
0.0683
>>> observed_measurement("CC#CCOc1ccc(SC(CCCCCC)C(=O)NO)cc1 (centres unmarked)")
0.105
>>> observed_measurement("CC#CCOc1ccc([S+]([O-])C(CCCCNC(=O)CNC(=O)C2c3ccccc3Oc3ccccc32)C(=O)NO)cc1 (centres unmarked)")
0.0226
>>> observed_measurement("CC#CCOc1ccc([S+]([O-])C(CCCCNC(=O)Cc2c[nH]c3ccccc23)C(=O)NO)cc1 (centres unmarked)")
0.0356
>>> observed_measurement("CC#CCOc1ccc(SC(CCCCNC(=O)c2ccc3ccccc3n2)C(=O)NO)cc1 (centres unmarked)")
0.0629
>>> observed_measurement("CC#CCOc1ccc([S+]([O-])C(CCCCNC(=O)c2ccc3ccccc3n2)C(=O)NO)cc1 (mixture of isomers)")
0.0205
>>> observed_measurement("CC#CCOc1ccc([S@+]([O-])[C@@H](CCCCCC)C(=O)NO)cc1")
0.0043
>>> observed_measurement("CC#CCOc1ccc(SC(CCCCNC(=O)Cc2csc3ccccc23)C(=O)NO)cc1 (centres unmarked)")
0.0328
